self-cleavage values, listed per item
B1: HDV Ribozyme (parent)
chain: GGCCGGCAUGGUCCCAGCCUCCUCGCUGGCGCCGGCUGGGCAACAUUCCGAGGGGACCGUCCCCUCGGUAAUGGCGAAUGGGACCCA

Variants of: B1
Assay: self-cleavage, relative activity (ratio to wild type); higher = more cleavage; co-transcriptional
// response body must contain only the number

Observe how each entry below is paired with its result.
C61A U79C : 0.506
U65A U72C : 0.511
C33G G74C : 0.237
A51C U60C : 1.15
C7G G53U : 0.26
U23C G34C : 0.172

The recorded self-cleavage for G81U A87U is 0.455

The recorded self-cleavage for C44A G68A is 0.704

The recorded self-cleavage for C24A G29U is 0.0369

The recorded self-cleavage for A16U G73A is 0.222
